# reported OD450 nm; entries follow
molecular target: T1, His-tagged CD47 recombinant protein, CD47-His (human, UniProt Q08722 19-141, limits assumed); assay: ELISA on coated CD47-His; Ab 66.667 nM
T1 construct: it is not restated for CD47-His; also called human CD47-His protein; antigen CD47-His; not shown: His tag
Number only, no unit.

These recorded examples may help you get a feel for the data.
May I ask what OD450 nm has been recorded for 4D10B11 (antibody, V domains shown, Murine hybridoma antibody purified on protein G) VH: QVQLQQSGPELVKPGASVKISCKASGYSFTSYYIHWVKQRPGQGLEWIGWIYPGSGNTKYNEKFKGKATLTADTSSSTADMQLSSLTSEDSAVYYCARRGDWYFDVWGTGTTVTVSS VL: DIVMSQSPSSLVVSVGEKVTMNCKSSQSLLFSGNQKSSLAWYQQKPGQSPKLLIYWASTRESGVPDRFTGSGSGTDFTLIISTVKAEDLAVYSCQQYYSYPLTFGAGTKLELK ? 2.91

May I ask what OD450 nm has been recorded for 51E2F11 (antibody, V domains shown, Murine hybridoma antibody purified on protein G) VH: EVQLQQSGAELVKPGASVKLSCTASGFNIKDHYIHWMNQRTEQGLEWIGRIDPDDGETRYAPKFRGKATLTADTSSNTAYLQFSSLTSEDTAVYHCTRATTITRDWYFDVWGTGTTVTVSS VL: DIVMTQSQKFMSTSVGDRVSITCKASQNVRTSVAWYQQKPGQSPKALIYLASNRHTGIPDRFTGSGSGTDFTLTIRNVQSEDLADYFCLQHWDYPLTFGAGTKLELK ? 2.95

May I ask what OD450 nm has been recorded for 25E3B5 (antibody, V domains shown, Murine hybridoma antibody purified on protein G) VH: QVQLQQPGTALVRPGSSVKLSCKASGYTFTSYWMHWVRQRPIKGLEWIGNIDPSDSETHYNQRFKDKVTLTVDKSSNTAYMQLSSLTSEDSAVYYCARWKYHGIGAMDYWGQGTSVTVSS VL: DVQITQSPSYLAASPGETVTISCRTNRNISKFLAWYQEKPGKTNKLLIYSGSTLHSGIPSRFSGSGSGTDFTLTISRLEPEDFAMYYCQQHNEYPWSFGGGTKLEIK ? 2.89

May I ask what OD450 nm has been recorded for 54G8G6 (antibody, V domains shown, Murine hybridoma antibody purified on protein G) VH: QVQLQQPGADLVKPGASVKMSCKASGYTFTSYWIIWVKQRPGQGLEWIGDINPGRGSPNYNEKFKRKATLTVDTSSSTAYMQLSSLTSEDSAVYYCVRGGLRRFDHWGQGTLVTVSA VL: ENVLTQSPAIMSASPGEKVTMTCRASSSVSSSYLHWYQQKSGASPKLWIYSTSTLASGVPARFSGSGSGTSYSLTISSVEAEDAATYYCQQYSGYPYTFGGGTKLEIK ? 2.86

Continuing:
May I ask what OD450 nm has been recorded for 132D1E5 (antibody, V domains shown, Murine hybridoma antibody purified on protein G) VH: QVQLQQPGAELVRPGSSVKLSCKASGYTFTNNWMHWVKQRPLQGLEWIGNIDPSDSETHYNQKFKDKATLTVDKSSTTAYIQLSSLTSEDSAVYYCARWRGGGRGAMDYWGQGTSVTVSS VL: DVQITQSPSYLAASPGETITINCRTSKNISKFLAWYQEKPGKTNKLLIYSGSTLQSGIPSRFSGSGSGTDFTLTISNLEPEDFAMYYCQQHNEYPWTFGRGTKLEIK ? 2.88

May I ask what OD450 nm has been recorded for 20H4G5 (antibody, V domains shown, Murine hybridoma antibody purified on protein G) VH: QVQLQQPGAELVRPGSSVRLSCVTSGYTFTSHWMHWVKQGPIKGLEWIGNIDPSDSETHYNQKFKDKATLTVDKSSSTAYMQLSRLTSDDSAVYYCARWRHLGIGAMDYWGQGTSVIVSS VL: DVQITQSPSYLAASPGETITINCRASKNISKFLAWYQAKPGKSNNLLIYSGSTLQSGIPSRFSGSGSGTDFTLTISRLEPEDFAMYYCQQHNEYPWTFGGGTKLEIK ? 2.9

May I ask what OD450 nm has been recorded for 95E2D10 (antibody, V domains shown, Murine hybridoma antibody purified on protein G) VH: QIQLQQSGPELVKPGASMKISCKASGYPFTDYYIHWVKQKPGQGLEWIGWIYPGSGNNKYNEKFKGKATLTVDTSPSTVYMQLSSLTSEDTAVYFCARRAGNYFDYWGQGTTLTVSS VL: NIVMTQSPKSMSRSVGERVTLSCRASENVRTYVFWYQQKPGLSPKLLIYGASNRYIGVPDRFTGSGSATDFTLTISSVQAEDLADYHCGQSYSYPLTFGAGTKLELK ? 2.93
